target: T1, Fc-tagged human Tim3-ECD dimer (human, UniProt Q8TDQ0 22-202); experiment: SPR, Ab captured on anti-mouse IgG, 25 C
T1 construct: also called huTim3Fc; huFc fused dimeric human Tim3-ECD
readout_name: Kd (nM)
Please give a number only; it is taken to be in nM.

Recorded results for 2 binders are shown here.
binder: anti-TIM3 antibody Tim3_0026 (antibody, V domains shown, Mouse monoclonal from hybridoma) VH: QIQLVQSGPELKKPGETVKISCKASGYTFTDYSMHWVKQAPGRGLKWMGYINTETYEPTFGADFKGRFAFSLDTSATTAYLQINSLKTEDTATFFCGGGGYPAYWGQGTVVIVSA VL: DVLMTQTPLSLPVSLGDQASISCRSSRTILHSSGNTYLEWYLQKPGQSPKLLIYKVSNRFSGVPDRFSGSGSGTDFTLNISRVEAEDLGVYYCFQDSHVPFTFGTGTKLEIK
val: 1.52
--
binder: anti-TIM3 antibody Tim3_0016 variant (Tim3_0018) (antibody, V domains shown, Mouse monoclonal from hybridoma; also called TIM3-0016 variant (0018); Tim3_0016 variant 0018-A488) VH: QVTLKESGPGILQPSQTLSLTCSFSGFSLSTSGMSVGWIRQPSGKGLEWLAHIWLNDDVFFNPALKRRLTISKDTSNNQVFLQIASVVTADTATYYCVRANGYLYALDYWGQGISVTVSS VL: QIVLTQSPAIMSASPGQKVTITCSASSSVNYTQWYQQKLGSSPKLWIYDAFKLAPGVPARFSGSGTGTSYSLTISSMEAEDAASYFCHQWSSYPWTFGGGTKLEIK
val: 1.11

--- query ---
Exam item: Record request: Kd value, item anti-TIM3 antibody Tim3_0033 (antibody, V domains shown, Mouse monoclonal from hybridoma) VH: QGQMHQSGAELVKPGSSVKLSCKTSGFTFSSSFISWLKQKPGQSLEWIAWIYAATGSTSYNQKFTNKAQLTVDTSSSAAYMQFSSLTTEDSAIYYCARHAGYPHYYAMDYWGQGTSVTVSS VL: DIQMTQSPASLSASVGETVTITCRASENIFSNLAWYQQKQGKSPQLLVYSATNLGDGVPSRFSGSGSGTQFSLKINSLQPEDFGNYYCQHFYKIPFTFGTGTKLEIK
Marked response: 3.05

Ref: patent US20180072804A1
